# TARGET_OR_TEST_SYSTEM: Proteasome Macropain subunit MB1 (Homo sapiens)
# Sequence (P28074 whole entry): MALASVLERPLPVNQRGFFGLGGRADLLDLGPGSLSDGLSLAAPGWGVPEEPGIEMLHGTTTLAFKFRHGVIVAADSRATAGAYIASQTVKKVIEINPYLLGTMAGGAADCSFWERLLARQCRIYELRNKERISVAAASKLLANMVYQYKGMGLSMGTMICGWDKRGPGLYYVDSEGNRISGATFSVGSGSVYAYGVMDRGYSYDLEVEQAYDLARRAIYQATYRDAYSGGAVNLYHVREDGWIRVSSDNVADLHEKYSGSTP
# TEST: Inhibition of chymotrypsin-like activity of human 20S proteasome using Suc-LLVY-AMC as substrate by fluorometric method
EXPERIMENTAL_READOUT: pIC50
Conceptually, pIC50 converts a concentration in mol/L into minus its log10.

LINE_NOTATION	TARGET_OR_TEST_SYSTEM	pIC50
CC[C@H](C)[C@H](NC(=S)Nc1cccc([N+](=O)[O-])c1)C(=O)N[C@H](Cc1ccccc1)C(=O)Nc1cccc(C(F)(F)F)c1	Proteasome Macropain subunit MB1 (Homo sapiens)	8.07
CC[C@H](C)[C@H](/N=C(/Nc1cccc(C(F)(F)F)c1)SC)C(=O)N[C@H](Cc1ccccc1)C(=O)Nc1cccc(C(F)(F)F)c1	Proteasome Macropain subunit MB1 (Homo sapiens)	5.05
CC[C@H](C)[C@H](NC(=S)Nc1cccc([N+](=O)[O-])c1)C(=O)N[C@H](Cc1ccccc1)C(=O)Nc1ccc(Br)cc1	Proteasome Macropain subunit MB1 (Homo sapiens)	5.57

## Input Name the reported pIC50 value associated with the compound CC[C@H](C)[C@H](NC(=S)Nc1cccc([N+](=O)[O-])c1)C(=O)N[C@H](Cc1ccccc1)C(=O)Nc1ccc(OC)cc1
## Output 4.54

## Input Name the reported pIC50 value associated with the compound CC[C@H](C)[C@H](/N=C(/Nc1cccc(C(F)(F)F)c1)SC)C(=O)N[C@H](Cc1ccccc1)C(=O)Nc1ccc(Cl)c(Cl)c1
## Output 4.65

## Input Name the reported pIC50 value associated with the compound CC[C@H](C)[C@H](NC(=S)Nc1cccc([N+](=O)[O-])c1)C(=O)N[C@H](Cc1ccccc1)C(=O)Nc1ccc(Cl)c(Cl)c1
## Output 5.87

## Input Name the reported pIC50 value associated with the compound CC[C@H](C)[C@H](NC(=S)Nc1cccc([N+](=O)[O-])c1)C(=O)N[C@H](Cc1ccccc1)C(=O)Nc1cccc(OC)c1
## Output 4.65

## Input Name the reported pIC50 value associated with the compound CC[C@H](C)[C@H](NC(=S)Nc1ccc(C(F)(F)F)cc1)C(=O)N[C@H](Cc1ccccc1)C(=O)Nc1cccc(Br)c1
## Output 7.66

## Input Name the reported pIC50 value associated with the compound CC[C@H](C)[C@H](NC(=S)Nc1cccc([N+](=O)[O-])c1)C(=O)N[C@H](Cc1ccccc1)C(=O)Nc1cccc(Cl)c1
## Output 5.23

## Input Name the reported pIC50 value associated with the compound CC[C@H](C)[C@H](NC(=S)Nc1cccc(C(F)(F)F)c1)C(=O)N[C@H](Cc1ccccc1)C(=O)Nc1cccc(C(F)(F)F)c1
## Output 4.71

## Input Name the reported pIC50 value associated with the compound CC[C@H](C)[C@H](NC(=S)Nc1cccc([N+](=O)[O-])c1)C(=O)N[C@H](Cc1ccccc1)C(=O)Nc1cccc(F)c1
## Output 5.45
